Each recorded value in this set is attributed to patent US10450263B2.

Tested on: Chikungunya virus
Assay: Evaluation of antiviral activity against Chikungunya virus (EC90)
Format: cell-based
Settings: Chikungunya virus, read-out: EC90 (μM) CHIKV, concentration required for 90% inhibition of CHIKV
measuredAttribute: EC90 (µM)

COc1cc2c(cc1NC(=O)c1ccc(C3(C(F)(F)F)CC3)cc1)CCCCC2 [Compound 51]    1.3
COc1cc2c(cc1NC(=O)c1cnc(C(C)(C)C)nc1)CCCCC2 [Compound 49]    2.99
CCCOc1cc2c(cc1NC(=O)c1ccc(C(C)(C)C)cc1)CCCCC2 [Compound 86]    7
COc1cc2c(cc1NC(=O)c1c[nH]nc1C)CCCCC2 [Compound 69]    3.1
CCn1nc(C(=O)Nc2cc3c(cc2OC)CCCCC3)cc1C [Compound 31]    0.79
COc1cc2c(cc1NC(=O)c1ccc(C(C)(C)C)c(F)c1)CCCCC2 [Compound 53]    2.24
COc1cc2c(cc1NC(=O)c1cn(C)cn1)CCCCC2 [Compound 32]    55.6
COc1cc2c(cc1NC(=O)c1ccc(C(O)(C(F)(F)F)C(F)(F)F)cc1)CCCCC2 [Compound 48]    2.8
